# System: IFNα-stimulated STAT-dependent luciferase reporter in Kit225 T cells
# test: Kit225 T cell assay, IFNα stimulated STAT-dependent luciferase reporter
# Format: cell-based, human
# condition_parameters: Kit225 T cells, 200 U/mL human recombinant IFNα, 5-6 hours, luciferase; read-out: IFNα (Kit225 T Cell Inhibition Data)
Lab note - cut at 0.3 µM for IC50: condition met if strictly below, condition not met if not.

-- ask Could you please tell me whether IC50 recorded for "CNC(=O)c1cnc(Nc2ccc(C)cn2)cc1Nc1ccc(Cl)cc1OC" is less than 0.3 µM?
-- reply condition not met

-- ask Could you please tell me whether IC50 recorded for CNC(=O)c1cnc(Nc2ccc(F)cn2)cc1Nc1ccc(C(=O)NC2CC2F)cc1S(C)(=O)=O (centres unmarked) is less than 0.3 µM?
-- reply condition not met

-- ask Could you please tell me whether IC50 recorded for "CNC(=O)c1cnc(Nc2cc(C)c(F)cn2)cc1Nc1cccc(-c2nnco2)c1OC" is less than 0.3 µM?
-- reply condition met

-- ask Could you please tell me whether IC50 recorded for "CNC(=O)c1cnc(Nc2cc(C3CCC3)[nH]n2)cc1Nc1ccccc1S(C)(=O)=O" is less than 0.3 µM?
-- reply condition not met

-- ask Could you please tell me whether IC50 recorded for "CNC(=O)c1cnc(Nc2cc(F)ccn2)cc1Nc1ccc(F)cc1S(C)(=O)=O" is less than 0.3 µM?
-- reply condition met

-- ask Could you please tell me whether IC50 recorded for "CNC(=O)c1cnc(Nc2cc(C)c(F)cn2)cc1Nc1cccc(-c2ccn(C)n2)c1OC" is less than 0.3 µM?
-- reply condition met

-- ask Could you please tell me whether IC50 recorded for "CNC(=O)c1cnc(Nc2ccc(OC)cn2)cc1Nc1ccc(F)cc1OC" is less than 0.3 µM?
-- reply condition not met

-- ask Could you please tell me whether IC50 recorded for "CCn1cnc(-c2cccc(Nc3cc(Nc4cc(C)nc(C)n4)ncc3C(=O)NC)c2OC)n1" is less than 0.3 µM?
-- reply condition met

----------
# Tested on: IFNα-stimulated STAT-dependent luciferase reporter in Kit225 T cells
# test: Kit225 T cell assay, IFNα stimulated STAT-dependent luciferase reporter
# Assay type: cell-based, human
# condition_parameters: Kit225 T cells, 200 U/mL human recombinant IFNα, 5-6 hours, luciferase; read-out: IFNα (Kit225 T Cell Inhibition Data)
Task for the reader: assign each of the following compounds its reported IC50.
Return type: number; implicit unit nM.

-- ask Item CCOc1ccccc1Nc1cc(Nc2ccc(N3CCOCC3)cn2)ncc1C(=O)NC [Example 223] has what recorded IC50?
-- reply 190

-- ask Item CNC(=O)c1cnc(Nc2cc(C)nc(C)n2)cc1Nc1cccnc1OC [Example 314] has what recorded IC50?
-- reply 80

-- ask Item CNC(=O)c1cnc(Nc2cncc(C)n2)cc1Nc1ccccc1S(C)(=O)=O [Example 42] has what recorded IC50?
-- reply 140

-- ask Item CNC(=O)c1cnc(Nc2ccc(N3CCOCC3)cn2)cc1Nc1ccc(OC)cc1S(C)(=O)=O [Example 7] has what recorded IC50?
-- reply 100

-- ask Item CNC(=O)c1cnc(Nc2ccc(F)cn2)cc1Nc1cc(F)ccc1OC [Example 199] has what recorded IC50?
-- reply 660

-- ask Item CNC(=O)c1cnc(Nc2ccc3ccccc3n2)cc1NC1CCC(F)(F)CC1O (centres unmarked) [Example 293] has what recorded IC50?
-- reply 11400

-- ask Item CNC(=O)c1cnc(Nc2ccc(C#N)c(C)n2)cc1Nc1cc(F)cc(F)c1OC [Example 139] has what recorded IC50?
-- reply 180

-- ask Item CNC(=O)c1cnc(Nc2ccc3cnccc3n2)cc1Nc1ccccc1S(C)(=O)=O [Example 417] has what recorded IC50?
-- reply 330
